- protocol description: chemical genetic growth profiling, strain panel (AID 1159580);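 further: tested at 20 µM; growth read once vehicle control cultures reached saturation at 30 °C; 1 = growth at the plate median or of vehicle wells; lower values mean less growth of the strain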
- experimental setup: S. cerevisiae deletion strains, growth OD, locus YGL078C, strain dbp3, hits give low values
Out of some 5,500 compounds screened, about 2,000 (36%) were called active. Not shown: some 18% with an inconclusive outcome. This is one part of the list.
Reported normalized growth is given for each of the following molecules.

molecule | normalized growth
O=C(Cn1ccnc1[N+](=O)[O-])NCCO | 0.983
CC(C)C(C)/C=C/C(C)[C@H]1CCC2C3=CCC4CC(=O)CC[C@]4(C)C3CC[C@@]21C (some centres not stated) | 0.98
COc1c(OC)c2occc2c2oc(=O)ccc12 | 0.979
COC(=O)[C@@H]1OC(=O)[C@H]2O[C@@]23[C@@]1(C)CCC1[C@@]2(C)CCC(=O)C(C)(C)C2C[C@@H](OC(C)=O)[C@]13C (some centres not stated) | 1.02
Cc1cccc(C)c1NC1=NCCCS1 | 0.983
CC(=O)OCC[C@H](C)CCC=C(C)C | 1.01
CC1(C)OC(=O)C=CC2(C)C1CC(O)C1(C)C2CCC2(C)C(c3ccoc3)OC(=O)C3OC321 (configuration not stated) | 1.01
COc1ccc([C@H]2Oc3cc(OC)cc(OC)c3C[C@H]2O)cc1 | 1.02
COc1cc(-c2coc3cc(OC)c(OC)c(OC)c3c2=O)cc(OC)c1OC | 0.975
COc1cc([C@@H]2c3cc4c(c(O)c3C[C@H]3COC(=O)[C@@H]32)OCO4)cc(OC)c1OC | 0.986
CCCCN1CCCCC1C(=O)Nc1c(C)cccc1C (configuration not stated) | 0.996
COc1cc2occ(-c3ccccc3)c(=O)c2c(OC)c1C | 0.975
CC1OC1P(=O)(O)O (configuration not stated) | 0.988
COC(=O)C1=CCCN(C)C1 | 0.988
COc1c2ccoc2c(OC)c2oc(=O)ccc12 | 0.987
CC(=O)OCC(COC(C)=O)OC(C)=O | 1.01
O=C(O)CN(CC(=O)O)Cc1cc2c(-c3ccccc3C(=O)O)c3cc(CN(CC(=O)O)CC(=O)O)c(=O)cc-3oc2cc1O | 1.02
OCc1ccccc1O | 0.978
COc1ccc2c(c1)CCC(c1ccccc1)=C2c1ccc(OCCN2CCCC2)cc1 | 0.973
Cc1cccc(C(=O)O)c1O | 1
CCOC(=O)[C@H](CCc1ccccc1)N[C@@H](C)C(=O)N1[C@H](C(=O)O)C[C@@H]2CCC[C@@H]21 | 1.01
COc1cc(-c2coc3cc(OCc4ccccc4)c(OC)c(O)c3c2=O)cc(OCc2ccccc2)c1OC | 0.988
CC(=O)N[C@@H](CS)C(=O)O | 1.01
C[N+]1(C)C2CC(OC(=O)[C@@H](CO)c3ccccc3)CC1C1OC12 (some centres not stated) | 1.01
CC(=O)OC1CCC2(C)C(=CC=C3C2CCC2(C)C3CCC2C(C)/C=C/C(C)C(C)C)C1(C)C (configuration not stated) | 0.987
C=C1C(=O)OC2CC1C(OC(C)=O)C/C(C)=C/CC/C(C)=C/CC[C@]2(C)O (some centres not stated) | 1.01
O=C1NC(=O)C(=O)C(=O)N1 | 0.985

====

- protocol description: chemical genetic growth profiling, strain panel (AID 1159580);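 further: tested at 20 µM; growth read once vehicle control cultures reached saturation at 30 °C; 1 = growth at the plate median or of vehicle wells; lower values mean less growth of the strain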
- experimental setup: S. cerevisiae deletion strains, growth OD, locus YJR043C, strain POL32, hits give low values
Screen size: about 5,500 compounds; about 2,000 (36%) were called active. About 18% were inconclusive and are not listed. Some of the results follow.
quantity name: normalized growth

compound | result
Cc1cccc(C)c1NC1=NCCCS1 | 1.02 (inactive)
COc1ccccc1N=C(N)SCc1ccccc1 | 1.01 (inactive)
CCCc1cnc(N2CCCN(C(=S)Nc3cccnc3)CC2)nc1 | 1.03 (inactive)
C[N+]1(C)C2CC(OC(=O)[C@@H](CO)c3ccccc3)CC1C1OC12 (stereo not given in full) | 1.02 (inactive)
CC(=O)OCC[C@H](C)CCC=C(C)C | 1.01 (inactive)
COCCCNC(=S)Nc1ccc(C)cc1C | 0.977 (inactive)
C#CCCCCCCCCCCCC(O)CC(O)COC(C)=O (stereo not given) | 0.897 (inactive)
Cc1onc(-c2c(Cl)cccc2Cl)c1C(=O)Oc1ccc(Cl)c(Cl)c1 | 0.998 (inactive)
CC(=O)OCC(OC(C)=O)C(OC(C)=O)C(OC(C)=O)C(OC(C)=O)C(COC(C)=O)OC(C)=O (stereo not given) | 1.07 (inactive)
O=c1cc[nH]c(=S)[nH]1 | 1.02 (inactive)
CC(=O)c1cnn(-c2ccccc2)c1C | 0.994 (inactive)
CN1C(C(=O)Nc2ccccn2)=C(O)c2ccccc2S1(=O)=O | 0.995 (inactive)
CCNC(=O)CC[C@H](N)C(=O)O | 1.05 (inactive)
N#Cc1ncc(C(F)(F)F)cc1Oc1ccc(Cl)cc1 | 0.911 (active)
N#CC(C#N)=Cc1ccc(-c2cc(C(F)(F)F)ccc2Cl)o1 | 0.989 (inactive)
CN1c2ccccc2C(=O)NC1c1ccc([N+](=O)[O-])s1 (stereo not given) | 1.01 (inactive)
C[C@@H]1C(=O)OC2[C@H](O)C34[C@@H]5OC(=O)[C@@]3(O[C@@H]3OC(=O)[C@H](O)[C@@]34[C@H](C(C)(C)C)[C@H]5O)[C@]21O (stereo not given in full) | 0.994 (inactive)
CCCC(=O)O[C@]1(C(=O)CO)CCC2[C@@H]3CCC4=CC(=O)CC[C@]4(C)C3[C@@H](O)C[C@@]21C (stereo not given in full) | 0.992 (inactive)
Cc1ccc(C)c(OCCCC(C)(C)C(=O)O)c1 | 0.935 (inactive)
O=[N+]([O-])c1ccc2c(c1)NC(c1ccc([N+](=O)[O-])s1)O2 (stereo not given) | 0.0509 (active)
Cc1onc(-c2c(Cl)cccc2Cl)c1C(=O)OCC(F)(F)F | 0.99 (inactive)
O=C(CSCc1cccc2ccccc12)NNC(=S)Nc1ccccc1Cl | 0.986 (inactive)
COc1ccc2c(c1OC)C(=O)OC2[C@H]1c2c(cc3c(c2OC)OCO3)CCN1C (stereo not given in full) | 0.986 (inactive)
CCCNC1CCc2nc(N)sc2C1 (stereo not given) | 1 (inactive)
COc1ccc2c(c1O)OCC1c3cc4c(cc3OC21)OCO4 (stereo not given) | 0.987 (inactive)

// provenance: PubChem BioAssay AID1159580
